measuredOn: T1, Biotin-huCGRPaSA (human, not fully specified; biotin (position not given))
T1 construct: exact construct ('aSA') not explained; also called Biotin CGRPaSA; full-length (1-37) CGRP
T1 peptide: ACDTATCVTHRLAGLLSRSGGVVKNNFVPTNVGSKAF
assayInfo: ELISA, supernatant; relative to chimeric C245

{"columns": ["binder", "Relative binding activity, %, %"],
 "data": [
  ["hu5 (antibody, V domains shown, 1B2 HC-1/1F5 LC1-1) VH: QVQLVQSGAEVKKPGASVKVSCKASGYTFTDYNMHWVRQAPGQGLEWMGYIFPYNGVAVYNRKFRSRVTLTIDTSSSTAYMELRSLRSDDTAVYYCAREGLGGYWGQGTLVTVSS VL: EIVLTQSPATLSLSPGERATLSCKASQNIDFDGYAYMNWYQQKPGQAPRVLIYSVFNLESGIPARFSGSGSGTDFTLTISSLEPEDFAVYYCQQSHEVPYTFGQGTKLEIK", 88],
  ["hu67 (antibody, V domains shown, 1F5 HC-4/1A2 LC2-2) VH: QVQLVQSGSELKKPGASVKVSCKASGYTFTDFNMHWVRQAPGQGLEWMGYIYPYNGDVVYNQNFTNRFVLSVDSSSSTAYLQISSLKAEDTAVYYCAREGLGGYWGQGTLVTVSS VL: DIVLTQSPASLAVSPGQRATITCKASQNIDYDGYAYLNWYQQKPGQPPKVLIYSVFNLESGVPARFSGSGSGTDFTLTINPVEADDTANYYCQQSNEFPYTFGQGTKLEIK", 115],
  ["hu188 (antibody, V domains shown, 3E5 HC-4/1F5 LC1-2) VH: QVQLVQSGAEVKKPGASVKVSCKTSGYTFTDYNMHWVRQAPGQRLEWMGYISPYNAGTAYNQKFKFRVTLTVDTSSSTAYMELSSLRSEDTAVYYCAREGLGGYWGQGTLVTVSS VL: EIVLTQSPATLSLSPGERATLSCKASQNIDFDGYAYMNWYQHKPGQAPRVLIYSVFNLESGIPARFSGSGSGTDFTLTISSLEPEDFAVYYCQQSHEVPYTFGQGTKLEIK", 46]
]}
